measurement target: EZH1/SUZ/EED (Homo sapiens, UniProt O75530+Q15022+Q92800)
Sequence (Q92800 2-747 limits assumed): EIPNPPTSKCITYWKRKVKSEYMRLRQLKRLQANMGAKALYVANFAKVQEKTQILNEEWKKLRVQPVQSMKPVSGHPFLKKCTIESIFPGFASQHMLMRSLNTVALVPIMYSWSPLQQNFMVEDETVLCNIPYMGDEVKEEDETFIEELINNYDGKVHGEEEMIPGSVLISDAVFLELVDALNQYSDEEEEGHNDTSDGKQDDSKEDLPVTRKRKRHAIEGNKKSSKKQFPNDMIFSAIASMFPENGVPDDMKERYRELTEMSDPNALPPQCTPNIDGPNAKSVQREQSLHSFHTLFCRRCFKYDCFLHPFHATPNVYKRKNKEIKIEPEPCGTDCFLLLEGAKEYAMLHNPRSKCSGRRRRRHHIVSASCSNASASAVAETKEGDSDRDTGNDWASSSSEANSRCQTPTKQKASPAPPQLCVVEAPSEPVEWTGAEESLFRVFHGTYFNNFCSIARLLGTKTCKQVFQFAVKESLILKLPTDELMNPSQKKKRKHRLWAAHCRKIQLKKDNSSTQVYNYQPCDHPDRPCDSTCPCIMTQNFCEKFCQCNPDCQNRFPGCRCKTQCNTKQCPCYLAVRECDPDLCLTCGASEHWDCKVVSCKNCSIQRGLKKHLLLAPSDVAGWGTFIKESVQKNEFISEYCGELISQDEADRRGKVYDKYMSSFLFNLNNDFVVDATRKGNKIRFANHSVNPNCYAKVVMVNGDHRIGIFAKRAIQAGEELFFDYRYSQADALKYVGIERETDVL
Sequence (Q15022 2-739 partner limits assumed): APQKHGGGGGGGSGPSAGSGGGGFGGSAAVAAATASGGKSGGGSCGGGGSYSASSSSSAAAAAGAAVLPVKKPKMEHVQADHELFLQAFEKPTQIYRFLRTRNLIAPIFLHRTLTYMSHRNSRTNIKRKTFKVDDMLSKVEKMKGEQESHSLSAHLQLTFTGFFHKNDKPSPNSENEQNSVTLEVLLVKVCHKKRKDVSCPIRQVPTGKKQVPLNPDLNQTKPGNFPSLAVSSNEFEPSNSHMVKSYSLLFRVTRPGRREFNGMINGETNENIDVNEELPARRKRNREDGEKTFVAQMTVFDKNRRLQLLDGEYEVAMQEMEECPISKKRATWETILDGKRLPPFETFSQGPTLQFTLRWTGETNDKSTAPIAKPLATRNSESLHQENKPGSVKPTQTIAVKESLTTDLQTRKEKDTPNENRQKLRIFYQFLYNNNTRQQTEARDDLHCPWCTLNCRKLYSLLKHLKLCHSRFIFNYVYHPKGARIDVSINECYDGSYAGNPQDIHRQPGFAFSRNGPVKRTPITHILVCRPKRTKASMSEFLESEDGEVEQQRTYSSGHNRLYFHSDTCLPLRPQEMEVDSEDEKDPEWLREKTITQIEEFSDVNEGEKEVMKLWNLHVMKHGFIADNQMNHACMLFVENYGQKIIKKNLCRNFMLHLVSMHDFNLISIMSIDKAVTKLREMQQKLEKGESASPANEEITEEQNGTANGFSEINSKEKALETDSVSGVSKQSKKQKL
Sequence (O75530 2-441 partner limits assumed): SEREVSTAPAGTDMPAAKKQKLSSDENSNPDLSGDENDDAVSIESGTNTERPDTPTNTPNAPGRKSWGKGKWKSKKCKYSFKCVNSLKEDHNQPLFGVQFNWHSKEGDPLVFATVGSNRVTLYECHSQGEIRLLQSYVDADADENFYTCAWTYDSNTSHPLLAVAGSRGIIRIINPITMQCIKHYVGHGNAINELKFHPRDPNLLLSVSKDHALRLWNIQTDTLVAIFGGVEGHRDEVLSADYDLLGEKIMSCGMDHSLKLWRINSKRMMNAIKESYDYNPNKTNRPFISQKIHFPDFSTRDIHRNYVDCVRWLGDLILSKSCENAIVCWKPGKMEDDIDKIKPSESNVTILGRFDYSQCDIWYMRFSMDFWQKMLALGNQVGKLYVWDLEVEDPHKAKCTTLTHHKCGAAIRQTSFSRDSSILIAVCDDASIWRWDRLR
assay notes: Inhibitory effect on EZH1 by the MTase-Glo method (Test Example 1)
condition context: EZH1/SUZ/EED 25 nM, H3 peptide 10 μM, SAM 3 μM, 30° C. 3 h, read-out: Test Example 1 WT EZH1 IC50
pIC50: −log10 of the molar value.
outcome measure: pIC50

Would you please look over these solved cases?
Cc1cc(C)c(CNC(=O)c2cc(Cl)c3c(c2C)OC(C2CCC(N(C)C)CC2)C(C)O3)c(=O)[nH]1 (stereo not drawn) [Compound 124] | 6.49
Cc1cc(C)c(CNC(=O)c2cc(Cl)c3c(c2Cl)OC[C@@H]([C@H]2CC[C@H](N(C)C)CC2)O3)c(=O)[nH]1 [Compound 148] | 5.55
COC1CN([C@H]2CC[C@H]([C@H]3COc4c(C#N)cc(C(=O)NCc5c(SC)cc(C)[nH]c5=O)c(C)c4O3)CC2)C1 [Compound 154] | 7.52
COC1CC2CN([C@H]3CC[C@H]([C@H]4COc5c(Cl)cc(C(=O)NCc6c(SC)cc(C)[nH]c6=O)c(C)c5O4)CC3)CC2C1 (stereo partly drawn) [Compound 50] | 7.93

[I] COCCOC1CN([C@H]2CC[C@@H]([C@H]3COc4c(Cl)cc(C(=O)NCc5c(C)cc(C)[nH]c5=O)c(C)c4O3)CC2)C1 [Compound 91]
[II] COC1CN(C2CCC(C3COc4c(Cl)cc(C(=O)NCc5c(C)cc(C)[nH]c5=O)c(C)c4O3)CC2)C1 (single isomer, unassigned) [Compound 62]
In terms of reported pIC50, does I or II have the smaller number? Write the label of whichever entry you select. II

====

System: Karpas-422 cells
assay notes: Anti-proliferation by Cell Titer-Glo method (Test Example 3)
Assay type: cell-based
condition context: Homo sapiens; Karpas-422 cells, Cell-Titer Glo on the eleventh day; read-out: Test Example 3 Karpas-422 cell anti-proliferation IC50
Method: Karpas-422 (Nanjing Kebai, CBP60629) cells were seeded in a 96-well plate (Corning, 3894) at 1,000 cells per well in growth medium (80% 1640 (Hyclone, SH30809.01)+20% FBS (Corning, 35-081-CV)), in a total of 100 μL, and then was added with 25 μL of 5-fold different concentrations of compounds diluted in growth medium. […] On the eleventh day, the Cell-Titer Glo (Promega, G7573) was used to detect cell viability, and a microplate reader was used to detect the signal value of luminescence. […]
pIC50: −log10 of the molar value.
outcome measure: pIC50

Would you please look over these solved cases?
COC1CN([C@H]2CC[C@@H]([C@H]3COc4c(C#N)cc(C(=O)NCc5c(SC)cc(C)[nH]c5=O)c(C)c4O3)CC2)C1 | 8.43
CSc1cc(C)[nH]c(=O)c1CNC(=O)c1cc(Cl)c2c(c1C)O[C@@H]([C@H]1CC[C@@H](N3CC(OC4CC4)C3)CC1)CO2 | 8.82

[A] COc1cc(C)[nH]c(=O)c1CNC(=O)c1cc(Cl)c2c(c1C)O[C@@H]([C@H]1CC[C@@H](OCCF)CC1)CO2
[B] CSc1cc(C)[nH]c(=O)c1CNC(=O)c1cc(Cl)c2c(c1C)OC(C1CCN(CC3CC3)CC1)CO2 (stereo not shown)
[C] CSc1cc(C)[nH]c(=O)c1CNC(=O)c1cc(Cl)c2c(c1C)O[C@@H]([C@H]1CC[C@@H](N3CC4COCC4C3)CC1)CO2 (stereo partly shown)
[D] COc1cc(C)[nH]c(=O)c1CNC(=O)c1cc(Cl)c2c(c1C)O[C@@H]([C@H]1CC[C@H](OCCF)CC1)CO2
[E] COc1cc(C)[nH]c(=O)c1CNC(=O)c1cc(Cl)c2c(c1C)O[C@@H]([C@H]1CC[C@H](N3CC[C@@H](OC)C3)CC1)CO2
List these items ordered by pIC50, big to small. Enter labels, ranked according to the request. C, D, B, A, E
(C: 8.48, D: 7.97, B: 7.70, A: 7.44, E: 6.33)
